TESTED ON: mouse CD47/SIRPα (Mus musculus, UniProt P97797)
Construct: CD47 on CHOK1-mCD47 cells (lenti-viral transfection)
Sequence (P97797 32-373 limits assumed): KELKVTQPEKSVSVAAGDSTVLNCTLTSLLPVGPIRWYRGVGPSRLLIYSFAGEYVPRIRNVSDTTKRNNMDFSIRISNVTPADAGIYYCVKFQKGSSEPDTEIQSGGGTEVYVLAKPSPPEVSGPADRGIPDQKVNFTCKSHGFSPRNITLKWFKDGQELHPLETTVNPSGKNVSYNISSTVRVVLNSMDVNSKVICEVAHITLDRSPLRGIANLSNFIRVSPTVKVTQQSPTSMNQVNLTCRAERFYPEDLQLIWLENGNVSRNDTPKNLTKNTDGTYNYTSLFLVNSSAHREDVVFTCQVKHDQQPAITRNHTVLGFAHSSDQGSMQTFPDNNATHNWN
EXPERIMENT NOTES: Blocking assay, mouse SIRPα protein binding to CHOK1-mCD47 cells
CONDITION LABEL: concentration gradient; read-out: IC50, blocking mouse CD47/SIRPα (mSirpα binding)
pIC50: −log10 of the molar value.
RECORDED METRIC: pIC50

Bench note: what pIC50 did CC1=C(C(=O)OC(C)C)C(c2cccc([N+](=O)[O-])c2)C(C(=O)OC2CN(C(c3ccccc3)c3ccccc3)C2)=C(N)N1 (stereo not shown) [Azelnidipine] show? ~4.43
